- Tested on: NCI-H460
- protocol-description: NCI tumour cell line growth inhibition, 48 h
Calls of active or inactive are those of the source. No stated cut-off is given here; in the data, active = GI50 up to about 1.1 µM and inactive = higher.
Would you kindly list GI50 for each of these compounds?

These recorded examples may help you get a feel for the data.
[[record]]
compound = "CCOC(=S)SCC(=O)O"
measured_parameter = "GI50"
result = "> 100 µM (inactive)"

[[record]]
compound = "COc1ccccc1NC(=O)C1=C(C)NC(C)=C(C(=O)Nc2ccccc2OC)C1/C=C/c1ccccc1"
measured_parameter = "GI50"
result = "> 100 µM (inactive)"

[[record]]
compound = "Cc1cc(C)nc(NS(=O)(=O)c2ccc(NC(=O)c3cc([N+](=O)[O-])cc([N+](=O)[O-])c3)cc2)n1"
measured_parameter = "GI50"
result = "86.7 µM (inactive)"

[[record]]
compound = "O=C(Cn1c2ccc(Br)cc2c2nc3ccccc3nc21)NCc1ccccc1"
measured_parameter = "GI50"
result = "> 100 µM (inactive)"

[[record]]
compound = "Fc1cc(C2=Nn3c(CNc4ccc(Cl)cc4)nnc3S/C2=C\\c2ccc(-c3ccc(Cl)cc3)o2)c(Cl)cc1Cl"
measured_parameter = "GI50"
result = "65.3 µM (inactive)"


Please report GI50 for every entry that follows.
1. NC(=O)c1ccc([N+](=O)[O-])cc1
2. O=C(O)CCc1nc2c(n1-c1ccccc1)C(=O)c1ccccc1C2=O
3. Cc1cc2[nH]c3c(C#N)c(-c4ccccc4)c(CN4CCOCC4)c(=O)n3c2cc1C
4. CC1CCC23COC(=O)C2C(O)CCC3C1(C)CC(O)c1ccoc1 (stereo not drawn)
5. CC(C)=CCC[C@@H](C)C1=C(O)C(=O)C(C)=C(N[C@H](C)c2ccccc2)C1=O

1: > 100 µM (inactive); 2: > 100 µM (inactive); 3: > 100 µM (inactive); 4: > 100 µM (inactive); 5: 2.75 µM (inactive)

====

Give measured GI50 for each item. Keep answers brief.
- System: SK-MEL-28
- protocol-description: NCI tumour cell line growth inhibition, 48 h
Active and inactive are the calls of the source. Rule as the data show it: active = GI50 up to about 1.1 µM and inactive = higher.

[[record]]
compound = "NC(=O)c1ccc([N+](=O)[O-])cc1"
result = "> 100 µM (inactive)"

[[record]]
compound = "Cc1nc2c(o1)C(=O)c1ccccc1/C2=N/c1ccccn1"
result = "18.8 µM (inactive)"


Would you mind giving GI50 for every compound in the list below?
1. COC(=O)/C(=N\N)C(C(=O)C(=O)Nc1cccc([N+](=O)[O-])c1)c1nc2ccc(C(=O)c3ccccc3)cc2nc1O (centres undefined)
2. O=C(Cc1ccccc1)NN1C(=O)/C(=C\c2ccc([N+](=O)[O-])cc2)S/C1=N\c1ccccc1

1: > 100 µM (inactive); 2: > 100 µM (inactive)

====

- Test system: PC-3
- protocol-description: NCI tumour cell line growth inhibition, 48 h
Calls of active or inactive are those of the source. Cut-off read from the data, not from the text of the source: active = GI50 up to about 1.1 µM and inactive = higher.
Select the correct class. Options are true (1) for active, false (0) for inactive and nothing else.

[[record]]
compound = "Cc1cccc(C(O)c2cccnc2)c1O (centres undefined)"
assigned_category = "false (0)"


Hi team, can someone confirm the assay call for COc1c(C)c(C/C=C(\C)CCCCO)c(OC)c2ccccc12 ?
false (0)

Same lookup for COc1cc(C2c3cc4c(cc3[C@@H](Nc3ccc([N+](=O)[O-])cc3)C3COC(=O)[C@H]23)OCO4)cc(OC)c1O (some centres undefined) , please.
false (0)

# repeat for NC(=O)CC1(O)C=CC(=O)C=C1
false (0)

Next up: COc1cc2c(cc1OC)C(=O)/C(=C/c1ccc([N+](=O)[O-])cc1)CC2
false (0)

Thanks! And c1ccc(/C(=N/Nc2ccncn2)c2ccccn2)cc1 ?
false (0)

And CC1CN=C(Nc2ccc(S(N)(=O)=O)cc2)S1 (centres undefined) ?
false (0)

Similarly, CC(C)OC(=O)c1ccc(NCC2=CC(=O)C=CC2=O)cc1 ?
false (0)
